target: Substance-P receptor (Cavia porcellus, UniProt P30547); test: Effective concentration to activate Tachykinin receptor 1 in guinea pig ileum(GPI); type: tissue-based
Sequence (P30547 whole entry): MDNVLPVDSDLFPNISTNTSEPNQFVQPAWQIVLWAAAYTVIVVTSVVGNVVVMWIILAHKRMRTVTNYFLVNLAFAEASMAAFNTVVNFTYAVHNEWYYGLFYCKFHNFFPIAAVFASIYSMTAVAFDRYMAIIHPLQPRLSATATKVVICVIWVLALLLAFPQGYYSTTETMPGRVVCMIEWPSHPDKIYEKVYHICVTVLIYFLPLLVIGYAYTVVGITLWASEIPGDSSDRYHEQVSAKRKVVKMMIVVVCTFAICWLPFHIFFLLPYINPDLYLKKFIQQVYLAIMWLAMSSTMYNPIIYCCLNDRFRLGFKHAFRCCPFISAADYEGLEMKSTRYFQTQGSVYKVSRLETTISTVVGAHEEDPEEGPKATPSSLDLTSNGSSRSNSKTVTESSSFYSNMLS
MEASURE_NAME: EC50 (nM)
Just the number please, in nM, no unit attached.

Entry Ac-RFFPLM-NH2 , EC50 reported as 3

* * *

molecular target: Neuromedin-K receptor (Rattus norvegicus, UniProt P16177); experiment: Effective concentration to activate Tachykinin receptor 3 in rat portal vein (RPV)
Sequence (P16177 whole entry): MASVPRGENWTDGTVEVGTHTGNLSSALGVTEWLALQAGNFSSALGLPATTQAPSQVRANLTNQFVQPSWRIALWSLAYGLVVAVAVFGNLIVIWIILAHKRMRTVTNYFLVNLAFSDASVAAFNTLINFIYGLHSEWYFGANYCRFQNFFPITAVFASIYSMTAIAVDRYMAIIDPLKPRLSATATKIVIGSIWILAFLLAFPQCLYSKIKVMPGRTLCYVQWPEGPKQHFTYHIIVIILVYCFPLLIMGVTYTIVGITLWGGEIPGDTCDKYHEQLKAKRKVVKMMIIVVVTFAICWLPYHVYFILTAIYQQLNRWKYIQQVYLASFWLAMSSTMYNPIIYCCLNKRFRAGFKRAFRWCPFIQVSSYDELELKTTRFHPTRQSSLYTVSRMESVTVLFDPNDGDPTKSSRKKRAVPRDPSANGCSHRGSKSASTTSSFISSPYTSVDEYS
Starred links: 1 amine or outer side, 2 acyl side, 3 side chain; linkers in the order of their positions; H or OH if unused. Positions of bridges follow the written chain, without caps; N, C: chain ends. Non-standard residues stand in square brackets, D forms with d. Residues, ends and D or L forms follow the SMILES beside them. N(6-aminohexyl)Gly = O=C(CN(CCCCCCN[*:3])[*:1])[*:2]; Gly(N(CH2)3NH2) = NCCCNCC(=O)O; Suc = O=C(CCC(=O)[*:2])[*:1]
Measured EC50 accompanies every entry in the list below.
Just the number please, in µM, no unit attached.

Entry CSCC[C@H](NC(=O)[C@H](CC(C)C)NC(=O)CN1CCCCCCNC(=O)CCC(=O)N[C@@H](CCCN=C(N)N)C(=O)N[C@@H](Cc2ccccc2)C(=O)N[C@@H](Cc2ccccc2)C1=O)C(N)=O (RFF[N(6-aminohexyl)Gly]LM-NH2; linker N-4 via Suc) , EC50 reported as 1

Entry CSCC[C@H](NC(=O)[C@H](CC(C)C)NC(=O)CN(CCCN)C(=O)[C@H](Cc1ccccc1)NC(=O)[C@H](Cc1ccccc1)NC(=O)[C@H](CCCNC(=N)N)NC(C)=O)C(N)=O (Ac-RFF[Gly(N(CH2)3NH2)]LM-NH2) , EC50 reported as 2

* * *

molecular target: Substance-P receptor (Cavia porcellus, UniProt P30547); experiment: Effective concentration to activate Tachykinin receptor 1 in guinea pig ileum(GPI)
Starred links: 1 amine or outer side, 2 acyl side, 3 side chain; linkers in the order of their positions; H or OH if unused. Positions of bridges follow the written chain, without caps; N, C: chain ends. Non-standard residues stand in square brackets, D forms with d. Residues, ends and D or L forms follow the SMILES beside them. *: point of attachment. N(6-aminohexyl)Gly = O=C(CN(CCCCCCN[*:3])[*:1])[*:2]; NGly(3-aminopropyl) = O=C(CN(CCCN[*:3])[*:1])[*:2]; N(2-Aminoethyl)Gly = O=C(CN(CCN[*:3])[*:1])[*:2]; Adipoyl = O=C(CCCCC(=O)[*:2])[*:1]; Glutaryl = O=C(CCCC(=O)[*:2])[*:1]; X2 = CC(=O)NCCCN(CC(=O)[*:2])[*:1]; Gly(N(CH2)3NH2) = NCCCNCC(=O)O; Suc = O=C(CCC(=O)[*:2])[*:1]; X1 = CNC(=O)CCCCC(=O)*
Measured EC50 accompanies every entry in the list below.
Just the number please, in nM, no unit attached.

Recorded EC50, per entry:
MOLECULE | ASSAY_TARGET | EC50 (nM)
CSCC[C@H](NC(=O)[C@H](CC(C)C)NC(=O)CN1CCCNC(=O)CCC(=O)N[C@@H](CCCN=C(N)N)C(=O)N[C@@H](Cc2ccccc2)C(=O)N[C@@H](Cc2ccccc2)C1=O)C(N)=O (RFF[NGly(3-aminopropyl)]LM-NH2; linker N-4 via Suc) | Substance-P receptor (Cavia porcellus, UniProt P30547) | 180
CSCC[C@H](NC(=O)[C@H](CC(C)C)NC(=O)CN1CCCCCCNC(=O)CCCC(=O)N[C@@H](CCCN=C(N)N)C(=O)N[C@@H](Cc2ccccc2)C(=O)N[C@@H](Cc2ccccc2)C1=O)C(N)=O (RFF[N(6-aminohexyl)Gly]LM-NH2; linker N-4 via Glutaryl) | Substance-P receptor (Cavia porcellus, UniProt P30547) | 60
CSCC[C@H](NC(=O)[C@H](CC(C)C)NC(=O)CN1CCNC(=O)CCC(=O)N[C@@H](CCCNC(=N)N)C(=O)N[C@@H](Cc2ccccc2)C(=O)N[C@@H](Cc2ccccc2)C1=O)C(N)=O (RFF[N(2-Aminoethyl)Gly]LM-NH2; linker N-4 via Suc) | Substance-P receptor (Cavia porcellus, UniProt P30547) | 4000
CSCC[C@H](NC(=O)[C@H](CC(C)C)NC(=O)CN(CCCN)C(=O)[C@H](Cc1ccccc1)NC(=O)[C@H](Cc1ccccc1)NC(=O)[C@H](CCCNC(=N)N)NC(C)=O)C(N)=O (Ac-RFF[Gly(N(CH2)3NH2)]LM-NH2) | Substance-P receptor (Cavia porcellus, UniProt P30547) | 300
CSCC[C@H](NC(=O)[C@H](CC(C)C)NC(=O)CNC(=O)[C@H](Cc1ccccc1)N(C)C(=O)[C@H](Cc1ccccc1)NC(=O)[C@H](CC(=O)O)NC(=O)CCC(=O)O)C(N)=O [SENKTIDE] | Substance-P receptor (Cavia porcellus, UniProt P30547) | 35000
CSCC[C@H](NC(=O)[C@H](CC(C)C)NC(=O)CN1CCCNC(=O)CCCCC(=O)N[C@@H](CCCN=C(N)N)C(=O)N[C@@H](Cc2ccccc2)C(=O)N[C@@H](Cc2ccccc2)C1=O)C(N)=O (RFF[NGly(3-aminopropyl)]LM-NH2; linker N-4 via Adipoyl) | Substance-P receptor (Cavia porcellus, UniProt P30547) | 5

Entry CNC(=O)CCCCC(=O)N[C@@H](CCCNC(=N)N)C(=O)N[C@@H](Cc1ccccc1)C(=O)N[C@@H](Cc1ccccc1)C(=O)N(CCCNC(C)=O)CC(=O)N[C@@H](CC(C)C)C(=O)N[C@@H](CCSC)C(N)=O (X1-RFF[X2]LM-NH2) , EC50 reported as 400

Entry CSCC[C@H](NC(=O)[C@H](CC(C)C)NC(=O)CN1CCCNC(=O)CCCC(=O)N[C@@H](CCCN=C(N)N)C(=O)N[C@@H](Cc2ccccc2)C(=O)N[C@@H](Cc2ccccc2)C1=O)C(N)=O (RFF[NGly(3-aminopropyl)]LM-NH2; linker N-4 via Glutaryl) , EC50 reported as 11

Entry CSCC[C@H](NC(=O)[C@H](CC(C)C)NC(=O)CN1CCCCCCNC(=O)CCC(=O)N[C@@H](CCCN=C(N)N)C(=O)N[C@@H](Cc2ccccc2)C(=O)N[C@@H](Cc2ccccc2)C1=O)C(N)=O (RFF[N(6-aminohexyl)Gly]LM-NH2; linker N-4 via Suc) , EC50 reported as 160

* * *

target: Substance-K receptor (Rattus norvegicus, UniProt P16610); experiment: Effective concentration to activate Tachykinin receptor 2 in rat vas deferens (RVD)
Sequence (P16610 whole entry): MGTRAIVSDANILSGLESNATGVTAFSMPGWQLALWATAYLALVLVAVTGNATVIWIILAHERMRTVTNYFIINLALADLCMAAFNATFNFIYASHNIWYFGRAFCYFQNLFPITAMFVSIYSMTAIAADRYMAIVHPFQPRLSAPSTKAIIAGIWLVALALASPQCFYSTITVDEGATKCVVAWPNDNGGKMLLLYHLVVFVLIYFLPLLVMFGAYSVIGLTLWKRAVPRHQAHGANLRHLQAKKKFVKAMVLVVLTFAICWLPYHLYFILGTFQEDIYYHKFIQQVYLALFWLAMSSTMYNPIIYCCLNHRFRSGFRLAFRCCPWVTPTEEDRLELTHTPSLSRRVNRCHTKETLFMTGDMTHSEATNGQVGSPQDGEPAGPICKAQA
Starred links: 1 amine or outer side, 2 acyl side, 3 side chain; linkers in the order of their positions; H or OH if unused. Positions of bridges follow the written chain, without caps; N, C: chain ends. Non-standard residues stand in square brackets, D forms with d. Residues, ends and D or L forms follow the SMILES beside them. N(6-aminohexyl)Gly = O=C(CN(CCCCCCN[*:3])[*:1])[*:2]; NGly(3-aminopropyl) = O=C(CN(CCCN[*:3])[*:1])[*:2]; N(2-Aminoethyl)Gly = O=C(CN(CCN[*:3])[*:1])[*:2]; Adipoyl = O=C(CCCCC(=O)[*:2])[*:1]; Glutaryl = O=C(CCCC(=O)[*:2])[*:1]; Gly(N(CH2)3NH2) = NCCCNCC(=O)O; Suc = O=C(CCC(=O)[*:2])[*:1]
MEASURE_NAME: EC50

Recorded EC50, per entry:
MOLECULE | EC50
CSCC[C@H](NC(=O)[C@H](CC(C)C)NC(=O)CN1CCCCCCNC(=O)CCC(=O)N[C@@H](CCCN=C(N)N)C(=O)N[C@@H](Cc2ccccc2)C(=O)N[C@@H](Cc2ccccc2)C1=O)C(N)=O (RFF[N(6-aminohexyl)Gly]LM-NH2; linker N-4 via Suc) | > 50 µM
CSCC[C@H](NC(=O)[C@H](CC(C)C)NC(=O)CN(CCCN)C(=O)[C@H](Cc1ccccc1)NC(=O)[C@H](Cc1ccccc1)NC(=O)[C@H](CCCNC(=N)N)NC(C)=O)C(N)=O (Ac-RFF[Gly(N(CH2)3NH2)]LM-NH2) | > 100 µM
CSCC[C@H](NC(=O)[C@H](CC(C)C)NC(=O)CN1CCNC(=O)CCC(=O)N[C@@H](CCCNC(=N)N)C(=O)N[C@@H](Cc2ccccc2)C(=O)N[C@@H](Cc2ccccc2)C1=O)C(N)=O (RFF[N(2-Aminoethyl)Gly]LM-NH2; linker N-4 via Suc) | > 50 µM
CSCC[C@H](NC(=O)[C@H](CC(C)C)NC(=O)CN1CCCNC(=O)CCCCC(=O)N[C@@H](CCCN=C(N)N)C(=O)N[C@@H](Cc2ccccc2)C(=O)N[C@@H](Cc2ccccc2)C1=O)C(N)=O (RFF[NGly(3-aminopropyl)]LM-NH2; linker N-4 via Adipoyl) | > 200 µM
CSCC[C@H](NC(=O)[C@H](CC(C)C)NC(=O)CN1CCCNC(=O)CCCC(=O)N[C@@H](CCCN=C(N)N)C(=O)N[C@@H](Cc2ccccc2)C(=O)N[C@@H](Cc2ccccc2)C1=O)C(N)=O (RFF[NGly(3-aminopropyl)]LM-NH2; linker N-4 via Glutaryl) | > 50 µM

Entry CSCC[C@H](NC(=O)[C@H](CC(C)C)NC(=O)CN1CCNC(=O)CCC(=O)NCC(=O)N[C@@H](CCCN=C(N)N)C(=O)N[C@@H](Cc2ccccc2)C(=O)N[C@@H](Cc2ccccc2)C1=O)C(N)=O (GRFF[N(2-Aminoethyl)Gly]LM-NH2; linker N-5 via Suc) , EC50 reported as > 50 µM

Entry CSCC[C@H](NC(=O)[C@H](CC(C)C)NC(=O)CN1CCCCCCNC(=O)CCCC(=O)N[C@@H](CCCN=C(N)N)C(=O)N[C@@H](Cc2ccccc2)C(=O)N[C@@H](Cc2ccccc2)C1=O)C(N)=O (RFF[N(6-aminohexyl)Gly]LM-NH2; linker N-4 via Glutaryl) , EC50 reported as > 50 µM

Entry CSCC[C@H](NC(=O)[C@H](CC(C)C)NC(=O)CN1CCCNC(=O)CCC(=O)N[C@@H](CCCN=C(N)N)C(=O)N[C@@H](Cc2ccccc2)C(=O)N[C@@H](Cc2ccccc2)C1=O)C(N)=O (RFF[NGly(3-aminopropyl)]LM-NH2; linker N-4 via Suc) , EC50 reported as > 50 µM

Entry CSCC[C@H](NC(=O)[C@H](CC(C)C)NC(=O)CNC(=O)[C@H](Cc1ccccc1)N(C)C(=O)[C@H](Cc1ccccc1)NC(=O)[C@H](CC(=O)O)NC(=O)CCC(=O)O)C(N)=O [SENKTIDE] , EC50 reported as > 200 µM

Entry source: ChEMBL document CHEMBL1129266
